Listed here are compounds together with their documented Population Healthy Nuclei (%).
test system: Fibroblast; assay: Multiplex assay against human fibroblast; assay type: toxicity, cell-based; conditions: 12 h, 1 µM, compound concentration 1 uM, replicate 2
readoutLabel: Population Healthy Nuclei (%)

{"compound": "Cc1[nH]c(/C=C2\\C(=O)Nc3ccc(S(=O)(=O)N(C)c4cccc(Cl)c4)cc32)c(C)c1C(=O)N1CCN(C)CC1", "assayResult": "77%"}
{"compound": "CC(C)(O)CNc1ncc(-c2ccnc(Nc3ccnc(Cl)c3)n2)c(CC2CC2)n1", "assayResult": "78%"}
{"compound": "CC(C)NCC(O)COc1ccc(CCOCC2CC2)cc1.Cl (centres undefined) [BETAXOLOL HYDROCHLORIDE]", "assayResult": "95%"}
{"compound": "C[C@@H](NCCCc1cccc(C(F)(F)F)c1)c1cccc2ccccc12.Cl [CINACALCET HYDROCHLORIDE]", "assayResult": "76%"}

---

tested on: HEK-293T; test: Multiplex assay against HEK293T; format: toxicity, cell-based; details: human, 12 h, 1 µM, compound concentration 1 uM, replicate 2
Is Population Normal (%) at least 90%? Then satisfied. If not, not satisfied.

{"molecule": "CCN(CC)CCCCNc1ncc2cc(-c3cc(OC)cc(OC)c3)c(NC(=O)NC(C)(C)C)nc2n1 [PD-173074]", "labelClass": "not satisfied"}
{"molecule": "Cc1nc(Nc2n[nH]c3c2CN(C(=O)N[C@H](CN(C)C)c2ccccc2)C3(C)C)c2sccc2n1 [PF-03758309]", "labelClass": "satisfied"}
{"molecule": "c1cn2cc(-c3ccc4cn[nH]c4c3)nc(Nc3ccc(N4CCOCC4)cc3)c2n1 [ENTOSPLETINIB]", "labelClass": "satisfied"}
{"molecule": "CC[C@H](C)C(=O)O[C@H]1C[C@@H](C)C=C2C=C[C@H](C)[C@H](CC[C@@H]3C[C@@H](O)CC(=O)O3)[C@H]21 [LOVASTATIN]", "labelClass": "satisfied"}
{"molecule": "Cc1nc(-c2ccc(-c3ccc(C(=O)N4CCc5cc6c(cc54)C4(CCN(C)CC4)CO6)cc3)c(C)c2)no1 [SB-224289]", "labelClass": "satisfied"}
{"molecule": "COc1cccc([C@@H](C)NCCCc2ccccc2Cl)c1.Cl [TECALCET HYDROCHLORIDE]", "labelClass": "satisfied"}
{"molecule": "C=CC(=O)Nc1ccc2ncnc(Nc3ccc(OCc4cccc(F)c4)c(Cl)c3)c2c1.Cc1ccc(S(=O)(=O)O)cc1", "labelClass": "satisfied"}
{"molecule": "Cl.N#Cc1ccc2[nH]cc(CCCCN3CCN(c4ccc5oc(C(N)=O)cc5c4)CC3)c2c1 [VILAZODONE HYDROCHLORIDE]", "labelClass": "satisfied"}
{"molecule": "CN1CCN(c2ccc(OC(F)(F)F)c(Nc3ncc4c(n3)-c3c(c(C(N)=O)nn3CCO)CC4)c2)CC1 [ONVANSERTIB]", "labelClass": "satisfied"}
{"molecule": "COc1cc2nccc(Oc3ccc(NC(=O)Nc4cc(C)on4)c(Cl)c3)c2cc1OC.O", "labelClass": "satisfied"}
{"molecule": "CN1CCC[C@@H]1CCO[C@](C)(c1ccccc1)c1ccc(Cl)cc1.O=C(O)/C=C/C(=O)O [CLEMASTINE FUMARATE]", "labelClass": "satisfied"}
{"molecule": "C[C@@]1(C(=O)Nc2ccc(F)nc2)CCCN1c1nc(Nc2cc(C3CC3)n[nH]2)c2cccn2n1 [BMS-754807]", "labelClass": "not satisfied"}
